# Tested on: ACHN renal
# experimental.details: NCI tumour cell line growth inhibition, 48 h
recorded.metric: TGI (µM)
Numbers only, in µM.

{"columns": ["compound", "TGI [µM]"],
 "data": [
  ["O=c1oc2ccccc2c(O)c1C(c1ccc2c(c1)Cc1ccccc1-2)c1c(O)c2ccccc2oc1=O", 45.6],
  ["Cc1cc(=O)oc2c3c(ccc12)OC(c1ccc(Br)cc1)CC3=O (stereo not given)", 29.4],
  ["CO[C@@]12C[C@H]3[C@@H]([C@@H](O)[C@@H](OC(=O)/C=C/c4ccccc4)[C@@]4(O)C(C)(C)CCC[C@]34C)[C@@H](C)C1=CC(=O)O2", 17.8],
  ["COc1cc(C2=NN(c3ccc(S(N)(=O)=O)cc3)C(c3ccc(Cl)cc3)C2)cc(OC)c1OC (stereo not given)", 9.27]
]}

With those in mind, consider the next compound.
QUERY: Report the value of TGI obtained on ACHN renal for C(=C\c1nccc2c1[nH]c1ccccc12)/c1ccccc1 .
RESULT: 20.8

---

# System: COLO 205 colon
# experimental.details: NCI tumour cell line growth inhibition, 48 h; in the data active means GI50 below about 0.43 µM; inactive means the rest
Answer with one of the outcomes active, inactive

{"columns": ["structure.smiles.string", "class.name"],
 "data": [
  ["COC(=O)OCc1ccc2c(c1)C(=O)c1c-2n(CCCBr)c(=O)c2cc([N+](=O)[O-])ccc12", "inactive"],
  ["C[C@@H](Oc1ccc2[nH]nc(/C=C/c3cnn(CCO)c3)c2c1)c1c(Cl)cncc1Cl", "active"],
  ["O=S(=O)(NCCNc1cc(-c2cn(-c3ccccc3)nc2-c2cccc(O)c2)ccn1)c1ccc(Cl)cc1", "inactive"]
]}

Let's switch to this compound now.
QUERY: Please let me know the test result on file for Cc1nc2cc(Nc3nc(Nc4ccc(F)cc4)nc(N4CCN(C)CC4)n3)ccc2n1Cc1ccccc1 .
RESULT: inactive

---

# Test system: HT29 colon
# experimental.details: NCI tumour cell line growth inhibition, 48 h
Could you please report measured TGI for the items listed next?

{"columns": ["molecule", "reported.result"],
 "data": [
  ["C/C(CC(=O)NC1=CC=C(NC(=O)C/C(C)=N\\Nc2ccccc2)CC1)=N/Nc1ccccc1", "> 100 µM"],
  ["O=C1/C(=C/c2ccccc2)CCc2ccccc21", "32.7 µM"],
  ["Cc1nc2cc(Nc3nc(Nc4ccc(F)cc4)nc(N4CCN(C)CC4)n3)ccc2n1Cc1ccccc1", "3.28 µM"],
  ["O=c1oc2ccccc2c(O)c1C(c1ccc2c(c1)Cc1ccccc1-2)c1c(O)c2ccccc2oc1=O", "> 100 µM"],
  ["CC(/C=N\\NC(=S)N(C)C)=N/NC(=S)N(C)C", "> 100 µM"],
  ["CNC(=O)CNC(=O)C(Cc1ccc(NC(=O)CCCCC(C)=O)cc1)NC(=O)C(CCC(=O)OCc1ccccc1)NC(=O)OC(C)(C)C (centres undefined)", "> 100 µM"]
]}

Lab note: each molecule below needs its TGI filled in.
1. COc1cccc(NC(=O)CC(=O)N2N=C(C)C(N=Nc3ccc(S(=O)(=O)CCOS(=O)(=O)O)cc3)C2=O)c1 (centres undefined)
2. Nc1cc(N2CCOCC2)nc(=O)n1-c1ccc(Cl)cc1

RESULT:
1. 13.8 µM
2. > 100 µM

QUERY: Supply recorded TGI for COc1ccc([C@]23CCN(S(=O)(=O)c4ccc(C)cc4)[C@H]2[C@H](CO)C2(CC3)OCC(C)(C)CO2)cc1OC here.
RESULT: > 100 µM

---

# Test system: HS 578T breast
# experimental.details: NCI tumour cell line growth inhibition, 48 h
recorded.metric: TGI

{"columns": ["compound", "reported.result"],
 "data": [
  ["Cc1ccc(CC(Cc2ccc(C)cc2C(=O)O)C(=O)O)cc1 (stereo not given)", "> 100 µM"]
]}

Lab note: each compound below needs its TGI filled in.
1. CC1(C)CC(=O)c2c(nc(SSc3nc4c(c(-c5ccc(Br)cc5)c3C#N)C(=O)CC(C)(C)C4)c(C#N)c2-c2ccc(Br)cc2)C1
2. Cc1nc2ncn3c(c-2c1Cc1ccccc1)NC=C(O)N3

RESULT:
["> 10 µM", "> 100 µM"]

---

# Tested on: NCI-H23 lung
# experimental.details: NCI tumour cell line growth inhibition, 48 h
recorded.metric: TGI

Observe how each entry below is paired with its result.
{"columns": ["structure.smiles.string", "target.of.assay", "TGI"],
 "data": [
  ["Cn1c2ccccc2c2nc3ccccc3c(Cl)c21", "NCI-H23 lung", "> 100 µM"],
  ["CC(C)c1cccc(C(=O)NCCN(C)C)c1[N+](=O)[O-]", "NCI-H23 lung", "> 100 µM"],
  ["COc1cc2ccc1OCc1cccc(n1)COc1ccc(cc1OC)C=Nc1ccc(cc1)-c1ccc(cc1)N=C2", "NCI-H23 lung", "> 100 µM"]
]}

With those in mind, consider the next compound.
QUERY: Supply recorded TGI for CCCSc1ccc2[nH]c(N3C(=O)/C(=C/c4cc(OC)c(OC)c(OC)c4)N=C3c3ccccc3)cc2c1 here.
RESULT: > 37.5 µM

---

# Test system: KM12 colon
# experimental.details: NCI tumour cell line growth inhibition, 48 h; in the data active = GI50 below about 0.43 µM; inactive = the rest
Answer with one of the outcomes active, inactive

Check out these entries, answers already filled in.
{"columns": ["molecule", "class.name"],
 "data": [
  ["O=C1c2ccn(CCCCN3CCCCC3)c2C(=O)c2c1c(O)c1ccccc1c2O", "inactive"],
  ["CN1CCN(c2ccc(NC3=C(Cl)C(=O)c4ncccc4C3=O)cc2C#N)CC1", "inactive"],
  ["COc1cc2cc(Oc3ccc(NC(=O)Nc4ccc(Cl)c(C(F)(F)F)c4)cc3)c(C)nc2cc1OC", "inactive"],
  ["CCCCCCCCCCCCCC(=O)C(C)N (centres undefined)", "inactive"],
  ["CS(=O)(=O)CCn1c(=O)c(Oc2ccc(F)cc2F)cc2cnc(NC3CCOCC3)nc21", "inactive"],
  ["C/C1=C/C(=O)O[C@@H]2C[C@@H](CC[C@H](C)/C=C\\C=C\\CC1)O[C@@](OCCc1ccccc1)([C@@H]1CSC(=O)N1)C2", "inactive"]
]}

QUERY: Please let me know the test result on file for COc1ccc(C(=O)COc2cccc(/C=C3\CSc4ccc(Cl)cc4C3=O)c2)cc1 .
RESULT: inactive

QUERY: Please let me know the test result on file for CCOC(=O)N[C@H]1CCc2c(Br)c(OC)c(OC)c(OC)c2-c2ccc(SC)c(=O)cc21 .
RESULT: active

QUERY: Please let me know the test result on file for c1cc[c]([Sn]([S]c2cccc3cccnc23)([S]c2cccc3cccnc23)[c]2ccccc2)cc1 .
RESULT: active

---

Could you please report measured TGI for the items listed next?
# Test system: EKVX NSCLC
# experimental.details: NCI tumour cell line growth inhibition, 48 h

Observe how each entry below is paired with its result.
{"columns": ["compound", "TGI"],
 "data": [
  ["CCSC1=N/C(=C/c2ccccc2O)C(=O)N1", "> 100 µM"],
  ["COC(=O)C1N=CSCC1(C)O (configuration not stated)", "> 100 µM"]
]}

Lab note: each compound below needs its TGI filled in.
1. O[C@H]1[C@H]2[C@H](O)C[C@H](CCOCc3ccccc3)CN2C[C@H]1O
2. O=C(O)c1cscc1Cc1cccs1
3. Cc1cc(C)cc(Nc2ccc([N+](=O)[O-])c(NCCN3CCOCC3)n2)c1
4. COC(OC)C1OC(CO)C(n2cc(F)c(=O)[nH]c2=O)C1O (configuration not stated)
5. CC1(C)CC(=O)C(=[N+]=[N-])C(=O)C1

RESULT:
> 100 µM
> 100 µM
> 100 µM
> 100 µM
> 100 µM

---

# System: HCC-2998 colon
# experimental.details: NCI tumour cell line growth inhibition, 48 h
Could you please report measured TGI for the items listed next?

{"columns": ["compound", "target.of.assay", "TGI"],
 "data": [
  ["C/C(CC(=O)NC1=CC=C(NC(=O)C/C(C)=N\\Nc2ccccc2)CC1)=N/Nc1ccccc1", "HCC-2998 colon", "> 100 µM"]
]}

Lab note: each compound below needs its TGI filled in.
1. O[C@H]1[C@H]2[C@H](O)C[C@H](CCOCc3ccccc3)CN2C[C@H]1O
2. CCOC(=O)C1=COC(C)(c2ccccc2)CC1=O (stereo not drawn)

RESULT:
> 100 µM
> 100 µM

---

# Test system: SK-MEL-2 melanoma
# experimental.details: NCI tumour cell line growth inhibition, 48 h
recorded.metric: GI50

Observe how each entry below is paired with its result.
{"columns": ["compound", "GI50"],
 "data": [
  ["CC1SC(c2c(Cl)cccc2Cl)N(NC(=O)C(O)c2ccccc2)C1=O (stereo not drawn)", "> 100 µM"],
  ["C=CCC(N[C@H](CO)c1ccccc1)c1cn(S(=O)(=O)c2ccc(C)cc2)c2ccccc12 (stereo partly drawn)", "32.2 µM"]
]}

With those in mind, consider the next compound.
QUERY: Report the value of GI50 obtained on SK-MEL-2 melanoma for O=C(CNc1ncco1)Nc1ccc(S(=O)(=O)c2ccc(NC(=O)CNc3ncco3)cc2)cc1 .
RESULT: 2.49 µM
